target: Isocitrate dehydrogenase [NADP] cytoplasmic (Homo sapiens, UniProt O75874); assay: Inhibition of recombinant human wild type IDH1 expressed in Escherichia coli using sodium (D)-isocitrate as substrate assessed as production of NADPH
Sequence (O75874 whole entry): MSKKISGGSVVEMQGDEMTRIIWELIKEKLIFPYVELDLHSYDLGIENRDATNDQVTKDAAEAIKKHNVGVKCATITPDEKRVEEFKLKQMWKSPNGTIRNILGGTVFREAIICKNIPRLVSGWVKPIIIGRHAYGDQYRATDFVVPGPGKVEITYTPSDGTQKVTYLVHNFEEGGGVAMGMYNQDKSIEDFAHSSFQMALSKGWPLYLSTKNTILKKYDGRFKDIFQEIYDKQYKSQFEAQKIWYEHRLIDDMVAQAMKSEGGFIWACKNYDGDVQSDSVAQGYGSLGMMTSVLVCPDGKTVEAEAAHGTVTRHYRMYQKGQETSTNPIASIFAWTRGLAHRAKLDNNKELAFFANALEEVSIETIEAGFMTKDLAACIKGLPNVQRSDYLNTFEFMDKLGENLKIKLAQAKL

substance-smiles	measurement-target	Ki / µM
CN1C(=O)/C(=C\c2ccc(=O)n(Cc3ccccc3)c2)NC1=S	Isocitrate dehydrogenase [NADP] cytoplasmic (Homo sapiens, UniProt O75874)	32.9
O=C1NC(=S)N/C1=C/c1ccc(=O)[nH]c1	Isocitrate dehydrogenase [NADP] cytoplasmic (Homo sapiens, UniProt O75874)	10.3
CN1C(=O)/C(=C\c2ccc(=O)[nH]c2)NC1=S	Isocitrate dehydrogenase [NADP] cytoplasmic (Homo sapiens, UniProt O75874)	8.8
